- test.name: Selectivity index, ratio of CC50 for African green monkey Vero cells to IC50 for chloroquine-sensitive Plasmodium falciparum 3D7 asynchronous cultures infected in human erythrocytes
- Assay type: toxicity, cell-based
- conditions: read-out: Ratio CC50/IC50

# cpd.smiles, selectivity ratio
rows = [
    ("CC(=O)OC[C@H]1O[C@@H](CC(=O)/C=C2\\C(=O)Nc3ccccc32)[C@H](OC(C)=O)[C@@H](OC(C)=O)[C@@H]1OC(C)=O", 29.8),
    ("CC(=O)OC[C@H]1O[C@@H](CC(=O)/C=C2\\C(=O)N(Cc3ccc(Br)cc3)c3ccccc32)[C@H](OC(C)=O)[C@@H](OC(C)=O)[C@@H]1OC(C)=O", 333),
    ("CC(=O)OC[C@H]1O[C@@H](CC(=O)/C=C2\\C(=O)N(Cc3ccc(Br)cc3)c3ccc(Cl)cc32)[C@H](OC(C)=O)[C@@H](OC(C)=O)[C@@H]1OC(C)=O", 389),
]

src = ChEMBL document CHEMBL4382238
